Attribution: the supplement of paper PMC10307832

test system: NCI-H1650; test: relative viability (nuclei count vs DMSO), 5 days (fraction); higher = more cells survive; conditions: first compound 0.01 µM
RESULT_TYPE: relative viability
// return just the number, without any unit appended

| MOLECULE | MEASUREMENT_TARGET | relative viability |
| --- | --- | --- |
| CCN(CC)CCCCNc1ncc2cc(-c3cc(OC)cc(OC)c3)c(NC(=O)NC(C)(C)C)nc2n1 + O=C(c1cc(Cc2n[nH]c(=O)c3ccccc23)ccc1F)N1CCN(C(=O)C2CC2)CC1 [Olaparib] (partner 8 µM) | NCI-H1650 | 0.815 |

QUERY: Quick one: relative viability for O=c1cc(N2CCOCC2)oc2c(-c3cccc4c3sc3ccccc34)cccc12 + COc1cccc2cc(-c3nc([C@H]4CC[C@H](C(=O)O)CC4)n4ncnc(N)c34)[nH]c12 [OSI-027] (partner 0.5 µM) ?
RESULT: 0.519

QUERY: Could you do the same for O=c1cc(N2CCOCC2)oc2c(-c3cccc4c3sc3ccccc34)cccc12 + Cc1nc(Nc2ncc(C(=O)Nc3c(C)cccc3Cl)s2)cc(N2CCN(CCO)CC2)n1 [Dasatinib] (partner 0.075 µM) , please?
RESULT: 0.34

QUERY: Now consider CCN(CC)CCCCNc1ncc2cc(-c3cc(OC)cc(OC)c3)c(NC(=O)NC(C)(C)C)nc2n1 + Cc1nc(Nc2ncc(C(=O)Nc3c(C)cccc3Cl)s2)cc(N2CCN(CCO)CC2)n1 [Dasatinib] (partner 0.075 µM) and answer again.
RESULT: 0.319

QUERY: Query O=c1cc(N2CCOCC2)oc2c(-c3cccc4c3sc3ccccc34)cccc12 + COc1cc2c(Oc3ccc(NC(=O)C4(C(=O)Nc5ccc(F)cc5)CC4)cc3F)ccnc2cc1OCCCN1CCOCC1 [Foretinib] (partner 0.25 µM) next
RESULT: 1.09

* * *

system: SW 900; test: relative viability (nuclei count vs DMSO), 5 days (fraction); higher = more cells survive; conditions: first compound 0.253 µM
RESULT_TYPE: relative viability
Give a plain numeric answer without units written out.

// solved cases for relative viability follow
| COMPOUND | relative viability |
| --- | --- |
| COc1nc(C)cnc1NS(=O)(=O)c1cccnc1-c1ccc(-c2nnco2)cc1 [Zibotentan] + NC(=O)Nc1cc(-c2cccc(F)c2)sc1C(=O)N[C@H]1CCCNC1 [AZD7762] (partner 0.2 µM) | 0.561 |
| COc1nc(C)cnc1NS(=O)(=O)c1cccnc1-c1ccc(-c2nnco2)cc1 [Zibotentan] + Cc1nc(Nc2ncc(C(=O)Nc3c(C)cccc3Cl)s2)cc(N2CCN(CCO)CC2)n1 [Dasatinib] (partner 0.075 µM) | 0.59 |

In the following, a different compound is considered.
QUERY: # query: relative viability of entry COc1nc(C)cnc1NS(=O)(=O)c1cccnc1-c1ccc(-c2nnco2)cc1 [Zibotentan] + COc1cccc2cc(-c3nc([C@H]4CC[C@H](C(=O)O)CC4)n4ncnc(N)c34)[nH]c12 [OSI-027] (partner 0.5 µM)
RESULT: 0.607

* * *

system: HARA; assay: relative viability (nuclei count vs DMSO), 5 days (fraction); higher = more cells survive; conditions: first compound 0.1 µM
RESULT_TYPE: relative viability
Give the figure by itself; no unit, no explanation.

Example entries and their recorded answers appear below.
| MOLECULE | ASSAY_VALUE |
| --- | --- |
| O=c1cc(N2CCOCC2)oc2c(-c3cccc4c3sc3ccccc34)cccc12 + CC(C)C[C@H](NC(=O)[C@H](Cc1ccccc1)NC(=O)c1cnccn1)B(O)O [Bortezomib] (partner 0.002 µM) | 1.19 |
| CCN(CC)CCCCNc1ncc2cc(-c3cc(OC)cc(OC)c3)c(NC(=O)NC(C)(C)C)nc2n1 + O=C(CCCCCCC(=O)Nc1ccccc1)NO [Vorinostat] (partner 1 µM) | 0.528 |
| CCN(CC)CCCCNc1ncc2cc(-c3cc(OC)cc(OC)c3)c(NC(=O)NC(C)(C)C)nc2n1 + C[C@]1(O)C[C@@H](c2nc(-c3ccc4ccc(-c5ccccc5)nc4c3)c3c(N)nccn32)C1 [Linsitinib] (partner 1 µM) | 0.989 |
| O=c1cc(N2CCOCC2)oc2c(-c3cccc4c3sc3ccccc34)cccc12 + CC(=O)c1c(C)c2cnc(Nc3ccc(N4CCNCC4)cn3)nc2n(C2CCCC2)c1=O [Palbociclib] (partner 0.5 µM) | 0.201 |
| O=c1cc(N2CCOCC2)oc2c(-c3cccc4c3sc3ccccc34)cccc12 + Nc1nc2[nH]cc(CCc3ccc(C(=O)N[C@@H](CCC(=O)O)C(=O)O)cc3)c2c(=O)[nH]1 [Pemetrexed] (partner 0.2 µM) | 0.225 |
| CCN(CC)CCCCNc1ncc2cc(-c3cc(OC)cc(OC)c3)c(NC(=O)NC(C)(C)C)nc2n1 + CC(=O)Nc1cccc(-n2c(=O)n(C3CC3)c(=O)c3c(Nc4ccc(I)cc4F)n(C)c(=O)c(C)c32)c1 [Trametinib] (partner 0.02 µM) | 0.645 |

QUERY: Item under review: CCN(CC)CCCCNc1ncc2cc(-c3cc(OC)cc(OC)c3)c(NC(=O)NC(C)(C)C)nc2n1 + C[C@@H](Oc1cc(-c2cnn(C3CCNCC3)c2)cnc1N)c1c(Cl)ccc(F)c1Cl [Crizotinib] (partner 1 µM) . Reported relative viability?
RESULT: 1.26

QUERY: For O=c1cc(N2CCOCC2)oc2c(-c3cccc4c3sc3ccccc34)cccc12 + Cc1nc(NC(=O)N2CCC[C@H]2C(N)=O)sc1-c1ccnc(C(C)(C)C(F)(F)F)c1 [Alpelisib] (partner 2 µM) then?
RESULT: 0.88

QUERY: Next up: O=c1cc(N2CCOCC2)oc2c(-c3cccc4c3sc3ccccc34)cccc12 + O=C(c1cc(Cc2n[nH]c(=O)c3ccccc23)ccc1F)N1CCN(C(=O)C2CC2)CC1 [Olaparib] (partner 8 µM)
RESULT: 0.884

QUERY: Okay, and O=c1cc(N2CCOCC2)oc2c(-c3cccc4c3sc3ccccc34)cccc12 + CC(=O)Nc1cccc(-n2c(=O)n(C3CC3)c(=O)c3c(Nc4ccc(I)cc4F)n(C)c(=O)c(C)c32)c1 [Trametinib] (partner 0.02 µM) ?
RESULT: 0.688

QUERY: Try this molecule next: CCN(CC)CCCCNc1ncc2cc(-c3cc(OC)cc(OC)c3)c(NC(=O)NC(C)(C)C)nc2n1 + CS(=O)(=O)CCNCc1ccc(-c2ccc3ncnc(Nc4ccc(OCc5cccc(F)c5)c(Cl)c4)c3c2)o1 [Lapatinib] (partner 2 µM)
RESULT: 0.764

QUERY: Input CCN(CC)CCCCNc1ncc2cc(-c3cc(OC)cc(OC)c3)c(NC(=O)NC(C)(C)C)nc2n1 + N=C(N)NC(=N)NCCc1ccccc1 [Phenformin] (partner 250 µM)
RESULT: 0.489
